tested on: human Liver-Chip; assay: Liver-Chip DILI prediction: minimum toxic concentration and margin of safety (MOS)-like figure; conditions: free IC50 concentration in the assay divided by total concentration of drug in human plasma at Cmax; donor 2;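 also: Toxic concentration is the lowest across albumin IC50 and ALT and morphology endpoints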
reported_metric: Chip MOS donor 2

Input: Give the observed Chip MOS donor 2 of Cc1cc2c(s1)Nc1ccccc1N=C2N1CCN(C)CC1 [Olanzapine] for human Liver-Chip.
Output: >2

Input: Give the observed Chip MOS donor 2 of Nc1c2c(nc3ccccc13)CCCC2 [Tacrine] for human Liver-Chip.
Output: >12

Input: Give the observed Chip MOS donor 2 of O=c1[nH]c(=O)n([C@@H]2O[C@H](CO)[C@@H](O)[C@@H]2F)cc1I [FIRU] for human Liver-Chip.
Output: >108

Input: Give the observed Chip MOS donor 2 of C[C@H]1COc2c(N3CCN(C)CC3)c(F)cc3c(=O)c(C(=O)O)cn1c23 [Levofloxacin] for human Liver-Chip.
Output: >33.7

Input: Give the observed Chip MOS donor 2 of CCc1ccc(CCOc2ccc(CC3SC(=O)NC3=O)cc2)nc1 (centres unmarked) [Pioglitazone] for human Liver-Chip.
Output: > 2.8
